- System: MS2 coat protein
- Method: apparent KD of MS2 coat protein; designed switch direction (-1 OFF switch, 1 ON switch): -1; higher = weaker reporter binding
- Condition Parameters: input ligand: none
Observed Property: apparent KD of MS2 coat protein (µM)

[[record]]
sequence = "ACAUGAGGAUCACCCAUGUCCGGCUGGUCCGUUUCGGCUGUCGAGGAUAUAGUUCGGUGUUCGCGCUAGAAGGCGGGAGCUGGC [Aenatbe mod 60] (Eterna round: R96, puzzle: Exclusion NG 3)"
units_of_measure = "µM"
measured = 0.114

[[record]]
sequence = "GUAAAUCAUGUAGGAUAUGCAUAGCAAAGCUAUGCAGAAGGACAUGAGGAUCACCCAUGUCAUUCCGUCUGGAGACAGACGGGA [Mat - Exclusion NG 1 - Mod of JL - D58] (Eterna round: R96, puzzle: Exclusion NG 1)"
units_of_measure = "µM"
measured = 0.0367

[[record]]
sequence = "GUAAACGAAGAGGAUAUUUGAUAUCAUAGCUUCAAAGAAGGCUUCACAUGAGGAUCACCCAUGUGAUCUUCAAG [Mat - Exclusion 6 - JL Mod - D21] (Eterna round: R97, puzzle: Exclusion 6)"
units_of_measure = "µM"
measured = 0.0348

[[record]]
sequence = "UAUGGUCUUGAGGAUAUACCAGGGUGAGUCCAGGUAGAAGGUAGGACAUGAGGAUCACCCAUGUGACGUAGUGU [Eternabot (L2) Solution 49] (Eterna round: R97, puzzle: Exclusion 6)"
units_of_measure = "µM"
measured = 0.354

